B1: H2-Kb / Ed39 (parent complex)
chain 1: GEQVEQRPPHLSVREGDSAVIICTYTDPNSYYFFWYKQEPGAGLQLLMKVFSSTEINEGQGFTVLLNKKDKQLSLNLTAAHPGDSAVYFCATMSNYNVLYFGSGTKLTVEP
chain 2: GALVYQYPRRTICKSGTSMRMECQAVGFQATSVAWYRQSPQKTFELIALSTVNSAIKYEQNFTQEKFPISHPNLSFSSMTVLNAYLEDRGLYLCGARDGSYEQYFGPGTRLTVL
chain 3: not shown
chain 4: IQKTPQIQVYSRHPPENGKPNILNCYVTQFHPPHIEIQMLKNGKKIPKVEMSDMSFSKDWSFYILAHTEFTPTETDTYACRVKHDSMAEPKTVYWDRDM
chain 5: SIINFEKL

Variants of: B1
Test protocol: % of reporter cells activated (NFAT-GFP), raw; further: test concentration or dose not given here
Note to self: use MET only for ratio to parent readings below 0.6; a reading exactly at 0.6 still gets NOT MET.

### Prompt Please state whether ratio to parent is below 0.6 for chain 5 S1E
### Response MET

### Prompt Then chain 5 I3L ?
### Response NOT MET

### Prompt Then chain 5 L8F ?
### Response NOT MET

### Prompt Then chain 5 E6N ?
### Response MET

### Prompt Then chain 5 I3G ?
### Response MET

### Prompt Then chain 5 E6R ?
### Response MET

### Prompt Then chain 5 I2T ?
### Response NOT MET
